Reference source: the supplement of paper PMC9112550

test system: Escherichia coli TOP10; experiment: shrunken log2 fold change of peptide-encoding DNA abundance (4.5 h post-induction vs induction); higher = less antimicrobial activity (less host growth inhibition); details: time post-induction: 4.5 h; library: site-saturation at positions 5, 18, 19, 20;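 also: peptides expressed intracellularly from a pBAD plasmid library in pooled LB shake-flask culture, induced with 0.3% L-arabinose, DNA abundance read by NGS, three biological replicates, DESeq2 with apeglm shrinkage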
Use 1 when the recorded shrunken log2 fold change is no lower than -0.03; use -1 when it is lower.

Example entries and their recorded answers appear below.
{"columns": ["chain", "class-label"],
 "data": [
  ["RRIRKRPPRLPRPRPRPRLLPRP", 1],
  ["RRIRPRPPRLPRPRPRPQFEPRP", 1],
  ["RRIRRRPPRLPRPRPRPMETPRP", -1],
  ["RRIRERPPRLPRPRPRPYKMPRP", -1],
  ["RRIRERPPRLPRPRPRPARVPRP", -1]
]}

// query Reported shrunken log2 fold change reaches at least -0.03 for RRIRKRPPRLPRPRPRPFRPPRP ?
// result -1

// query Reported shrunken log2 fold change reaches at least -0.03 for RRIRNRPPRLPRPRPRPWRLPRP ?
// result 1

// query Reported shrunken log2 fold change reaches at least -0.03 for RRIRNRPPRLPRPRPRPQAFPRP ?
// result 1

// query Reported shrunken log2 fold change reaches at least -0.03 for RRIRQRPPRLPRPRPRPMYPPRP ?
// result -1

// query Reported shrunken log2 fold change reaches at least -0.03 for RRIRPRPPRLPRPRPRPYWQPRP ?
// result 1

// query Reported shrunken log2 fold change reaches at least -0.03 for RRIRMRPPRLPRPRPRPRICPRP ?
// result 1

// query Reported shrunken log2 fold change reaches at least -0.03 for RRIRKRPPRLPRPRPRPKQCPRP ?
// result 1
